Biological target: T1, recombinant soluble human Seprase (rhuSeprase) (human, UniProt Q12884 29-760)
T1 construct: range 29-760; Secreted from CHO-S cells with a mouse Ig kappa secretion signal (not part of the protein in the assay); also called recombinant human Seprase; soluble fraction of human Seprase
T1 sequence: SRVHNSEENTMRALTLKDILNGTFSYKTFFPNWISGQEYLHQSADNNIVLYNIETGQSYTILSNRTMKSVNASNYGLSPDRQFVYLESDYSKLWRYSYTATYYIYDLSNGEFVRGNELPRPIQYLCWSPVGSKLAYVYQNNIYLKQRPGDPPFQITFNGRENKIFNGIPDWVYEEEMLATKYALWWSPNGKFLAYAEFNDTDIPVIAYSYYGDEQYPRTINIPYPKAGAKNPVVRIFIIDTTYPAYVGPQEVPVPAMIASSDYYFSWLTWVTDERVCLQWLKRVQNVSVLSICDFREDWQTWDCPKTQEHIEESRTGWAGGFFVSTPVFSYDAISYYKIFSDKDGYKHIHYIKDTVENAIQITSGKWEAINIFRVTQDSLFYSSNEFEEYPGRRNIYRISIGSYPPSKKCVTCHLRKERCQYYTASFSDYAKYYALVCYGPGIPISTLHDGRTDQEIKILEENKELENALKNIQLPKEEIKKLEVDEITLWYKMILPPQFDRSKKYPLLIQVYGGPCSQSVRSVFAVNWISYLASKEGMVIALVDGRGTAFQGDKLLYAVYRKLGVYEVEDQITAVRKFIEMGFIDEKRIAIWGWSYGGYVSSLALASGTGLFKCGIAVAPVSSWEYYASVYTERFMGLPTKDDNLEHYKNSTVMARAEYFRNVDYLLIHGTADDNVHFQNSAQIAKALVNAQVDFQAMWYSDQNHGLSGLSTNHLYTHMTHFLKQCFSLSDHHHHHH
Experiment: SPR (Biacore T-100), rhuSeprase immobilized on CM5, multi cycle kinetics, 1:1 fit
pKd: −log10 of the molar value.

binder: GSGACPYTRWAVGRGPDCRRDSDCPGRCICRGNGYCG (designed binder) [FA8-D03]
pKd: 6.83
--
binder: GSGACPYSRWMPGRGPSCRRDSDCPGRCICRGNGYCG (designed binder) [FA7-A05]
pKd: 6.69
--
binder: GSGACPYSRWAVGRGPDCRRDSDCPGRCICRGNGYCG (designed binder) [FA8-D06]
pKd: 6.82
